- Tested target: 5-HT2A receptor (Homo sapiens (Human), UniProt P28223)
- Assay explanation: 5-HT2A receptor radioligand binding with [3H]ketanserin
- Run parameters: read-out: Ki at 5-HT2A Receptor (nM) ([3H]ketanserin); HEK293 stable cell line, 1 nM [3H]ketanserin, 1 h, 25 °C
Reported Ki values are given for each entry in this list.

[
  {
    "Compound": "COc1cc(CCCCF)c(OC)nc1CCN",
    "Measurement units": "nM",
    "Ki": 103
  },
  {
    "Compound": "COc1cc(Cl)c(OC)nc1CCN",
    "Measurement units": "nM",
    "Ki": 264
  },
  {
    "Compound": "CCCCCCc1cc(OC)c(CC(C)N)nc1OC (stereo not shown)",
    "Measurement units": "nM",
    "Ki": 3.1
  },
  {
    "Compound": "COc1cc(CCN)c(OC)cc1Br [Compound 2C-B, 2C-B, reference compound]",
    "Measurement units": "nM",
    "Ki": 8.25
  },
  {
    "Compound": "COc1cc(CCCCCF)c(OC)nc1CCN",
    "Measurement units": "nM",
    "Ki": 10.2
  },
  {
    "Compound": "COc1cc(CCCCCC(F)(F)F)c(OC)nc1CCN",
    "Measurement units": "nM",
    "Ki": 6.01
  },
  {
    "Compound": "CCc1cc(OC)c(CC(C)N)nc1OC (stereo not shown)",
    "Measurement units": "nM",
    "Ki": 322
  },
  {
    "Compound": "CCc1cc(OC)c(CCN)cc1OC [Compound 2C-E, 2C-E, reference compound]",
    "Measurement units": "nM",
    "Ki": 16.7
  },
  {
    "Compound": "CCCCCc1cc(OC)c(CC(C)N)nc1OC (stereo not shown)",
    "Measurement units": "nM",
    "Ki": 26.2
  },
  {
    "Compound": "COc1ccccc1CNCCc1nc(OC)c(Br)cc1OC",
    "Measurement units": "nM",
    "Ki": 0.35
  }
]

Cited source: patent US20250270173A1
